Data provenance: patent US10294202B2

// reported Plant response rating, Sedge, Umbrella per item
Tested on: sedge, umbrella
Assay: Test B flooded paddy test
Assay type: in vivo, Cyperus difformis
Details: 250 g ai/ha, Flood; scale of 0 to 100 where 0 is no effect and 100 is complete control
Description: Plant species in the flooded paddy test selected from rice (Oryza sativa), sedge, umbrella (small-flower umbrella sedge, Cyperus difformis), ducksalad (Heteranthera limosa), and barnyardgrass (Echinochloa crus-galli) were grown to the 2-leaf stage for testing. […] Treated plants and controls were maintained in a greenhouse for 13 to 15 days, after which time all species were compared to controls and visually evaluated. […]

Cc1cccc(C2CNC(=O)C2C(=O)Nc2ccccc2F)c1 (racemic)
0
O=C1NCC(c2ccc(C(F)(F)F)cc2)C1C(=O)Nc1ccccc1F (stereo not shown)
0
COc1cc(C2CNC(=O)C2C(=O)Nc2ccccc2C(F)(F)F)ccc1F (racemic)
0
CC1(C(=O)Nc2cccc(F)c2F)C(=O)NCC1c1ccc(F)c(Cl)c1 (stereo not shown)
30
O=C1NCC(c2cc(F)c(F)c(F)c2)C1C(=O)Nc1cccc(F)c1F (stereo not shown)
60

Documented Plant response rating, Sedge, Umbrella of O=C1NCC(c2ccc(F)c(Cl)c2)C1C(=O)Nc1ccccc1F (stereo not shown) : 60

Documented Plant response rating, Sedge, Umbrella of O=C1NCC(c2ccc(F)c(C(F)(F)F)c2)C1C(=O)Nc1cccc(F)c1F (racemic) : 0
